Quick list: fold change of affinity per entry.
Molecular target: T1, Human CD3eg linker (human)
T1 construct: Single-chain construct; also called recombinant human CD3
T1 chain: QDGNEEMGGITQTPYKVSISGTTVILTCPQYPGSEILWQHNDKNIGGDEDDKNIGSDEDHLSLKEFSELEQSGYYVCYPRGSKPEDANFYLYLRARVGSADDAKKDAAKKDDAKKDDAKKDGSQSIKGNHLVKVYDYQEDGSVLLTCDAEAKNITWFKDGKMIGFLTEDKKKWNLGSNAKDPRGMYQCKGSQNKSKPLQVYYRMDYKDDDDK
Assay: SPR; fold vs parent H183/L072
Report the figure in fold without appending any unit label.

Completed entries (count: 4):
INSERT INTO results (binder, measured_result) VALUES
  ('H183/L072 VL T31A (antibody, name in Kabat numbering, V domains shown) VH: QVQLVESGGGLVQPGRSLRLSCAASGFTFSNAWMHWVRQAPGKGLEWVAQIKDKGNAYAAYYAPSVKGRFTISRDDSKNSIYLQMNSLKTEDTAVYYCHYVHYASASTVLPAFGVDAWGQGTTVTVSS VL: DIVMTQSPLSLPVTPGEPASISCQASQELVHMNRNAYLHWYQQKPGQAPRLLIYKVSNRFPGVPDRFSGSGSGTDFTLKISRVEAEDVGVYYCAQGTSVPFTFGQGTKLEIK', 0.2),
  ('H183/L072 VL R29D (antibody, name in Kabat numbering, V domains shown) VH: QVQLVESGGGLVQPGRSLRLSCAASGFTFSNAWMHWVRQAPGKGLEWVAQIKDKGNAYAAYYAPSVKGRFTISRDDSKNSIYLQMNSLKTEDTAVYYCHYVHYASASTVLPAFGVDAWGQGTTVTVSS VL: DIVMTQSPLSLPVTPGEPASISCQASQELVHMNDNTYLHWYQQKPGQAPRLLIYKVSNRFPGVPDRFSGSGSGTDFTLKISRVEAEDVGVYYCAQGTSVPFTFGQGTKLEIK', 0.3),
  ('H183/L072 VL A25E (antibody, name in Kabat numbering, V domains shown) VH: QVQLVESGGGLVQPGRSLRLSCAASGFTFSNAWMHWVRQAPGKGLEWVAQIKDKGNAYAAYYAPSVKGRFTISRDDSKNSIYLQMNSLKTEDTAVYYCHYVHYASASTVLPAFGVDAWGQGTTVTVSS VL: DIVMTQSPLSLPVTPGEPASISCQESQELVHMNRNTYLHWYQQKPGQAPRLLIYKVSNRFPGVPDRFSGSGSGTDFTLKISRVEAEDVGVYYCAQGTSVPFTFGQGTKLEIK', 0),
  ('H183/L072 VL H27dK (antibody, name in Kabat numbering, V domains shown) VH: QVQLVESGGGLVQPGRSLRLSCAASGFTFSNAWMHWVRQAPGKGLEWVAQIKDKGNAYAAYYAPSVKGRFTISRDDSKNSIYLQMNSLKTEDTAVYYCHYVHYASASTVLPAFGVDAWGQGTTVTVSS VL: DIVMTQSPLSLPVTPGEPASISCQASQELVKMNRNTYLHWYQQKPGQAPRLLIYKVSNRFPGVPDRFSGSGSGTDFTLKISRVEAEDVGVYYCAQGTSVPFTFGQGTKLEIK', 0);

API: the following record is the query input.
Req: Bench note: what fold change of affinity did H183/L072 VL L33H (antibody, name in Kabat numbering, V domains shown) VH: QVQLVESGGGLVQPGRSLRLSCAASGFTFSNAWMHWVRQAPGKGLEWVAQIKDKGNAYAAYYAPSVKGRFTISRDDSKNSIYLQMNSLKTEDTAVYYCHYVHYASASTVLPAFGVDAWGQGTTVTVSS VL: DIVMTQSPLSLPVTPGEPASISCQASQELVHMNRNTYHHWYQQKPGQAPRLLIYKVSNRFPGVPDRFSGSGSGTDFTLKISRVEAEDVGVYYCAQGTSVPFTFGQGTKLEIK show?
Resp: 1.4
